# Test system: TK-10
# experimental.protocol: NCI tumour cell line growth inhibition, 48 h
Active and inactive are the calls of the source. Rule as the data show it: active = GI50 up to about 1.1 µM and inactive = higher.
Bench note: report the call from active, inactive

CC1(C)C=C(/C=N/Nc2ccc([N+](=O)[O-])cc2)C(C#N)=C(O)C1(C#N)C#N	inactive
CN(C)Cc1c[nH]c2ncnc(O)c12	inactive
COP(=O)(Cc1ccc(/C=C/C#N)o1)OC	inactive
CNS(=O)(=O)c1ccc2c(c1)/C(=C1/Nc3ccccc3C1=O)C(=O)N2	inactive
O=C1CC2C=CC(O)C(C1)C2 (configuration not stated)	inactive
Nc1nc[n+](Cc2ccccc2)c2ncn(Cc3ccccc3)c12	inactive
C/C1=N\[N-]C(=O)c2ccccc2C(=O)N/N=C(\C)c2cccc1n2.O=[N+]([O-])[O-].[Zn+2]	inactive
COc1cc(/C=N\NC(=O)C[N+](C)(C)C)cc(OC)c1OC	inactive

Query block: Per the records of this test, what outcome belongs to O=C(CCCCCCC(=O)Nc1cccnc1)NO [PYROXAMIDE] ?
Result block: inactive

Query block: Recorded test outcome, item COCC1N=C(c2cc(OC)c(OC)c(OC)c2-c2cc3c(cc2[C@H](C)O)OCO3)O[C@H]1c1ccccc1 (some centres not stated)
Result block: inactive
